Origin of values: paper PMC5540273

Each entry below carries its reported %Inh.
Tested on: EPHB6
Conditions: concentration: 1 μM,replicates: in singlicate; n = 1;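 also: KINOMEscan kinase panel screen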
Note: unit % is implicit; provide only the numeric part.

CN(c1ccc2c(c1)nc(NCc1ccc(F)cc1)n2C)c1ccnc(Nc2ccc(CS(C)(=O)=O)cc2)n1.Cl [GW813244]: 78

Given item `Cn1ccc2ncnc(Oc3ccc(NC(=O)Nc4cnn(C(C)(C)C)c4)c(Cl)c3)c21` , the value recorded as its %Inh is 48

Lab note: O=c1[nH]cc(-c2ccc(O)cc2)c2sc(-c3ccncc3)cc12 [GSK1033723] gave %Inh of 0

CCn1c(-c2nonc2N)nc2cncc(CNC3CCNCC3)c21.Cl [SB-747651] yielded %Inh of 0

---

System: LCK
Details: concentration: 1 μM,replicates: in singlicate; n = 1
Documented %Inh across a set of compounds
Write it as a number; the unit % goes unstated.

C[C@@H]1CNc2c(sc3ccc4nc(-c5ccc(O)cc5)ccc4c23)C(=O)N1: 0
Cc1ccc(Nc2ccnc(Nc3ccc4c(c3)CS(=O)(=O)C4)n2)cc1O.Cl: 97.3
Cc1cccc2c(-c3ccncc3)c(-c3ccc(F)cc3)nn12.Cl: 19
Cn1ccc2ncnc(Oc3ccc(NC(=O)Nc4cnn(C(C)(C)C)c4)c(Cl)c3)c21: 71
FC(F)(F)c1cc(Br)cc(Nc2nccc(-c3cnn4ncccc34)n2)c1: 4
COC(=O)Nc1nc2cc(Oc3ccc(NC(=O)Nc4cc(C(F)(F)F)ccc4Cl)cc3)ccc2[nH]1.Cl: 98.9

compound `O=C(Nc1ccc(Oc2ccc3nc(NC(=O)C4CC4)cn3n2)c(F)c1)c1cccn(-c2ccccc2)c1=O` , %Inh observed: 0

Measured %Inh of `Cl.c1ccc(Oc2ccc(Nc3ccnc4cc(-c5ccc(CN6CCNCC6)o5)ccc34)cc2)nc1` : 82

response.value for `O=C1NCCc2[nH]c(-c3ccncc3)cc21` (field: %Inh) = 9

Per the record, `Cn1ccc2ncnc(Oc3ccc(NC(=O)Nc4cccc(C(F)(F)F)c4)c(F)c3)c21` has %Inh of 75

Form field %Inh, entry `Cn1ccc2ncnc(Oc3ccc(NC(=O)Nc4cc(C(C)(C)C)on4)c(Cl)c3)c21` : 98.2

Reported %Inh of `Cc1ccn2nc(-c3ccc(F)cc3)c(-c3ccncc3)c2c1.Cl` : 12

---

Test system: CDKL5
Conditions: concentration: 1 μM,replicates: in singlicate; n = 1
readoutName: %Inh (%)
Use % as the unit, but write only the number.

COc1ccc(Nc2nccc(N3CCC(NC(=O)c4cccc(C#N)c4)C3)n2)cc1 (centres unmarked): 0
Cc1cccc2c(-c3ccncc3)c(-c3ccc(F)cc3)nn12.Cl: 0
COc1cccc(OC)c1C(=O)Nc1cccc(-c2nn3ccccc3c2-c2ccnc(Nc3cccc(F)c3)n2)c1: 0
O=C(Nc1ccccc1)c1cccc(Oc2ccc3nccn3n2)c1: 0
CN1CCN(CCNc2nc3cc(Oc4ccc(NC(=O)Nc5cc(C(F)(F)F)ccc5F)cc4)ccc3[nH]2)CC1.Cl.Cl: 0

%Inh for `Cl.c1ccc(Oc2ccc(Nc3ccnc4cc(-c5ccc(CN6CCNCC6)o5)ccc34)cc2)nc1` is 0

`CN(c1ccc2c(c1)nc(NCc1ccc(F)cc1)n2C)c1ccnc(Nc2ccc(CS(C)(=O)=O)cc2)n1.Cl` has a reported %Inh of 0

Looking up `CCn1c(-c2nonc2N)nc2cncc(CNC3CCNCC3)c21.Cl` , I see its %Inh listed as 0
